Before we begin, note that these IC50 values for Beta-glucuronidase (Bos taurus, UniProt A3KMY8) originate from several publications.
Doc: threshold 20 µM (exclusive). Items with IC50 beneath it return label 1; others return label 0.

Query: In plain terms, does `C=C1C[C@@H](OC(=O)c2ccccc2)[C@@H]2[C@](C)(CCC[C@@]2(C)C(=O)O)[C@@H]1CC/C(C)=C/CO` come in under 20 µM for IC50?
Reply: label 1

Query: In plain terms, does `Fc1ccccc1C(c1c[nH]c2ccc(Br)cc12)c1c[nH]c2ccc(Br)cc12` come in under 20 µM for IC50?
Reply: label 1

Query: In plain terms, does `COc1ccc(-c2nc3ccccc3c(=O)[nH]2)cc1O` come in under 20 µM for IC50?
Reply: label 1

====

Before we begin, note that these IC50 values for Beta-glucuronidase (Bos taurus) originate from several publications.
Number only, in µM; omit the unit.

STRUCTURE_STRING: COc1cc(OC)cc(-c2nnc(Nc3ccc(Cl)c(Cl)c3)s2)c1
RESULT_UNITS: µM
IC50: 19.2
--
STRUCTURE_STRING: CS(=O)(=O)Nc1cccc2cccnc12
RESULT_UNITS: µM
IC50: 48.6
--
STRUCTURE_STRING: O=[N+]([O-])c1cccc(S(=O)(=O)Oc2cccc3cccnc23)c1
RESULT_UNITS: µM
IC50: 30.1
--
STRUCTURE_STRING: O=[N+]([O-])c1ccccc1S(=O)(=O)Nc1cccc2cccnc12
RESULT_UNITS: µM
IC50: 18.2
--
STRUCTURE_STRING: COc1cccc(Nc2nnc(-c3ccc(Br)cc3)s2)c1
RESULT_UNITS: µM
IC50: 31.1
--
STRUCTURE_STRING: Clc1cccc(C(c2c[nH]c3ccc(Br)cc23)c2c[nH]c3ccc(Br)cc23)c1
RESULT_UNITS: µM
IC50: 22.3
--
STRUCTURE_STRING: Cc1cc(S(=O)(=O)Nc2cnc3ccccc3c2)c(C)cc1Cl
RESULT_UNITS: µM
IC50: 34.4
--
STRUCTURE_STRING: COc1ccc(Br)cc1S(=O)(=O)Nc1cccc2cccnc12
RESULT_UNITS: µM
IC50: 68.5
--
STRUCTURE_STRING: Clc1ccccc1-c1nnc(Nc2cccc(Br)c2)s1
RESULT_UNITS: µM
IC50: 8.96
--
STRUCTURE_STRING: COc1ccc(Br)cc1S(=O)(=O)Oc1cccc2cccnc12
RESULT_UNITS: µM
IC50: 49.5

Query: Report IC50 under test system Beta-glucuronidase (Bos taurus) for `Cc1ccc(-c2nnc(Nc3ccc(Cl)c(Cl)c3)s2)c(C)c1` .
Reply: 15.6

Query: Report IC50 under test system Beta-glucuronidase (Bos taurus) for `Oc1ccccc1-c1nc2ccccc2s1` .
Reply: 4.23

Query: Report IC50 under test system Beta-glucuronidase (Bos taurus) for `O=[N+]([O-])c1cccc(S(=O)(=O)Nc2cnc3ccccc3c2)c1` .
Reply: 46.2

Query: Report IC50 under test system Beta-glucuronidase (Bos taurus) for `COc1ccccc1-c1nnc(Nc2ccc(Cl)c(Cl)c2)s1` .
Reply: 22.6

Query: Report IC50 under test system Beta-glucuronidase (Bos taurus) for `O=S(=O)(Nc1cccc2ncccc12)c1cc(Cl)cc(Cl)c1O` .
Reply: 1.6

Query: Report IC50 under test system Beta-glucuronidase (Bos taurus) for `Clc1ccc(Nc2nnc(-c3ccccc3)s2)cc1Cl` .
Reply: 6.28

Query: Report IC50 under test system Beta-glucuronidase (Bos taurus) for `Oc1ccc(-c2nc3ccccc3s2)cc1O` .
Reply: 94

Query: Report IC50 under test system Beta-glucuronidase (Bos taurus) for `O=[N+]([O-])c1ccccc1S(=O)(=O)Oc1cccc2cccnc12` .
Reply: 6.4

Query: Report IC50 under test system Beta-glucuronidase (Bos taurus) for `Oc1ccc(-c2nc3ccccc3s2)c(O)c1` .
Reply: 19.4

Query: Report IC50 under test system Beta-glucuronidase (Bos taurus) for `Cc1ccc(Nc2nnc(-c3ccccc3Cl)s2)cc1` .
Reply: 16.7

Query: Report IC50 under test system Beta-glucuronidase (Bos taurus) for `CCCc1ccc(S(=O)(=O)Nc2cccc3cccnc23)cc1` .
Reply: 70.5

Query: Report IC50 under test system Beta-glucuronidase (Bos taurus) for `Brc1ccc(-c2nnc(Nc3ccccc3)s2)cc1` .
Reply: 40.2

Query: Report IC50 under test system Beta-glucuronidase (Bos taurus) for `O=S(=O)(Nc1cccc2ncccc12)c1ccc(Cl)cc1Cl` .
Reply: 2.1

Query: Report IC50 under test system Beta-glucuronidase (Bos taurus) for `COc1ccc(S(=O)(=O)Nc2cccc3cccnc23)cc1` .
Reply: 49.2

Query: Report IC50 under test system Beta-glucuronidase (Bos taurus) for `C=C(C=O)CC[C@@H]1C(=C)C[C@@H](OC(=O)c2ccccc2)[C@@H]2[C@]1(C)CCC[C@@]2(C)C(=O)O` .
Reply: 10

Query: Report IC50 under test system Beta-glucuronidase (Bos taurus) for `O=S(=O)(Nc1cccc2cccnc12)c1ccc(Cl)cc1` .
Reply: 33.4

Query: Report IC50 under test system Beta-glucuronidase (Bos taurus) for `COc1ccc(-c2nnc(Nc3ccc(C)cc3)s2)c(OC)c1` .
Reply: 39.3

Query: Report IC50 under test system Beta-glucuronidase (Bos taurus) for `N#Cc1ccc2[nH]cc(C(c3ccccc3[N+](=O)[O-])c3c[nH]c4ccc(C#N)cc34)c2c1` .
Reply: 19.9

====

Before we begin, note that these pIC50 values for Beta-glucuronidase (Bos taurus, UniProt A3KMY8) originate from several publications.
pIC50 is a log-scale quantity: -log10 of the concentration expressed in molar.

The examples below pair each entry with its known result.
STRUCTURE_STRING: O=[N+]([O-])c1cccc(S(=O)(=O)Nc2cccc3ncccc23)c1
READOUT_NUMBER: 4.91

STRUCTURE_STRING: Oc1ccc(O)c(-c2nc3ccccc3s2)c1
READOUT_NUMBER: 5.05

// moving on: another record for pIC50
Query: Report pIC50 under test system Beta-glucuronidase (Bos taurus, UniProt A3KMY8) for `OC[C@@H]1CNC[C@@H](O)[C@@H](O)[C@@H]1O` .
Reply: 3.23
